- target system: PrP (prion protein) (UniProt P04156)
- assay comment: EMSA
- test context: PrP form and source not stated
experimental readout: Kd (nM)
One number for each entry, in nM.

Data point: GGGAGACAAGACUAGACGCUCAACUACGAACUCAUGACACAAGGAUGCAAUCUCAUCCCG [B-end (PrPSc binding region)] ; Kd = 44.3
